# kon per entry
molecular target: T1, cyno PD-1 (SPR analyte) (cynomolgus monkey); experiment: SPR, ProteOn XPR36, mAb captured by anti-human IgG Fc, cyno PD-1 as analyte, 25 C
T1 construct: Construct of the soluble analyte is not described; also called cynomolgus PD-1
I only need the number, in M⁻¹ s⁻¹, no unit after it.

Answered examples (2):
PD1B1092 (antibody, human IgG1, kappa, V domains shown, IgG1; also called PD1H587/PD1L651; E57W (VH), V29F (VL) variant of PD1B878) VH: QVQLVQSGSELKKPGASVKVSCKASGYTFTDYSMHWVRQAPGQGLEWMGWINIETGWPTYAQGFTGRFVFSLDTSVSTAYLQISSLKAEDTAVYFCARDYYGTYFYAMDYWGQGTLVTVSS VL: EIVLTQSPATLSLSPGERATLSCTASSSFSSSYLHWYQQKPGLAPRLLIYSTSNLASGIPDRFSGSGSGTDYTLTISRLEPEDFAVYYCHQYHRSPLTFGQGTKLEIKR; 129000
PD1B1085 (antibody, human IgG1, kappa, V domains shown, IgG1; also called PD1H585/PD1L469; E57Y (VH) variant of PD1B878) VH: QVQLVQSGSELKKPGASVKVSCKASGYTFTDYSMHWVRQAPGQGLEWMGWINIETGYPTYAQGFTGRFVFSLDTSVSTAYLQISSLKAEDTAVYFCARDYYGTYFYAMDYWGQGTLVTVSS VL: EIVLTQSPATLSLSPGERATLSCTASSSVSSSYLHWYQQKPGLAPRLLIYSTSNLASGIPDRFSGSGSGTDYTLTISRLEPEDFAVYYCHQYHRSPLTFGQGTKLEIKR; 200000

We next turn to a different binder, shown below.
Which kon is listed for PD1B1090 (antibody, human IgG1, kappa, V domains shown, IgG1; also called PD1H585/PD1L651; E57Y (VH), V29F (VL) variant of PD1B878) VH: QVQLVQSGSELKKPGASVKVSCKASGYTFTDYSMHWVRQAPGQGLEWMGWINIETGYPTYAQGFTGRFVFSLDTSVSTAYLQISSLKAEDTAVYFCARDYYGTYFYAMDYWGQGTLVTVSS VL: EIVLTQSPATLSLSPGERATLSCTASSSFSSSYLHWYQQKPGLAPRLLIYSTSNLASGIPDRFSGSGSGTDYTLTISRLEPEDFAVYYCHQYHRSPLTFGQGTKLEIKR ?
130000

Data credit: patent US20230340155A1
